# ATG_CAR_TRANS annotations
Target: CAR (NR1I3) (Homo sapiens, UniProt Q14994)
Sequence (Q14994 whole entry): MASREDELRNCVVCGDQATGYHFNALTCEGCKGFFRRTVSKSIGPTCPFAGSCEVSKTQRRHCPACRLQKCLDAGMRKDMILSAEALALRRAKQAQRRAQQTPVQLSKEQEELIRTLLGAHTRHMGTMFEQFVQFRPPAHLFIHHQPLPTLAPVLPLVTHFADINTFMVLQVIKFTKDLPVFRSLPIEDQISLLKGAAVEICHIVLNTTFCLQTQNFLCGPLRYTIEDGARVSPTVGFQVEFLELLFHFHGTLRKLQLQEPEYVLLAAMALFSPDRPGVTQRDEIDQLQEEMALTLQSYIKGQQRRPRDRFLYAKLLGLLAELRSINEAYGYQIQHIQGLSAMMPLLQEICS
Assay: ATG_CAR_TRANS: Factorial reporter gene assay (HepG2)
Assay type: cell-based
Design: endogenous in cells; host or cells: HepG2
Details: HepG2; scale not given, looks like -log10 of molar active concentration; 0 = no activity

{"molecule": "N#Cc1c(Cl)c(Cl)c(Cl)c(C#N)c1Cl", "result": 0}
{"molecule": "Cc1c(COC(=O)C2C(/C=C(\\Cl)C(F)(F)F)C2(C)C)cccc1-c1ccccc1 (centres unmarked)", "result": 0}
{"molecule": "CCCCOCN(C(=O)CCl)c1c(CC)cccc1CC", "result": 0}

Continue with the molecule presented below.
Asked: Kindly state the measured ATG_CAR_TRANS obtained for COc1nc(C)nc(NC(=O)NS(=O)(=O)c2ccccc2Cl)n1 [r62] with CAR (NR1I3) (Homo sapiens, UniProt Q14994).
Given back: 0
